The measured values listed here are drawn from paper PMC12621189.

Target: hERG (Homo sapiens, UniProt Q12809)
Sequence (Q12809 whole entry): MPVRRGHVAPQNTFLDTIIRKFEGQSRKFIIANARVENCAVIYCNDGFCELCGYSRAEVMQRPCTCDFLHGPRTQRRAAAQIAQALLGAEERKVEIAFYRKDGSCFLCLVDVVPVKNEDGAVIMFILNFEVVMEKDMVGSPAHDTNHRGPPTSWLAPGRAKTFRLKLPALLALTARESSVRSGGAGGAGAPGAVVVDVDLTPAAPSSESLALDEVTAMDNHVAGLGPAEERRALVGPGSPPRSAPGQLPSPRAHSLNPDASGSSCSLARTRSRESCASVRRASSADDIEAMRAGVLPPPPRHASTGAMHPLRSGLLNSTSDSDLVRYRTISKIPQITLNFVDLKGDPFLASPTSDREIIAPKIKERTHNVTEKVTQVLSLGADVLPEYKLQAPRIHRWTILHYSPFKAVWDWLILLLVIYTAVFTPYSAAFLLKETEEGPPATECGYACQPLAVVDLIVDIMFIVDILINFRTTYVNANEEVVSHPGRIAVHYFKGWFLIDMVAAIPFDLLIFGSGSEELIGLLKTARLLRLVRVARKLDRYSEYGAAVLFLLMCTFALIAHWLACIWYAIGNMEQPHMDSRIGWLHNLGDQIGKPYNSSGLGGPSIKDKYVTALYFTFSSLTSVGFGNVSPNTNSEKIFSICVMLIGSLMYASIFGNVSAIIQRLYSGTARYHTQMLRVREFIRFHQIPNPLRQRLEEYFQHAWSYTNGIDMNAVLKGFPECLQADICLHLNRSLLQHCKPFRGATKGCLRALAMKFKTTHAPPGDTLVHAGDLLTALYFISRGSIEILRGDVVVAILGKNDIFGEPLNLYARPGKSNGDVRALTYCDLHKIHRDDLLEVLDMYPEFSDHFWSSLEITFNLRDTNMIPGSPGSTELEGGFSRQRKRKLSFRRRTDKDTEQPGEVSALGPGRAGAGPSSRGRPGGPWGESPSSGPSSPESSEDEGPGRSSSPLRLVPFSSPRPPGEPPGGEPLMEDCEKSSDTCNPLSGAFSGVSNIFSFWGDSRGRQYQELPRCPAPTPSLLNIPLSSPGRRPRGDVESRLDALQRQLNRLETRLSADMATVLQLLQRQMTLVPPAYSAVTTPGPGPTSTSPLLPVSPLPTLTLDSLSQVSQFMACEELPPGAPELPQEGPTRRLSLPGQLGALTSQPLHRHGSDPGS
Assay: Functional hERG inhibition
measurement type: IC50 (µM)
Please reply with the bare figure in µM and do not write the unit itself.

INSERT INTO measurements (query_smiles, measurement_type, quantity_unit, recorded_value) VALUES
  ('CC(=O)N1CCC(n2ncc(Cl)c2C(=O)Nc2ncc(C#Cc3ccccc3)cc2C)CC1', 'IC50', 'µM', 6.7);

API: the following record is the query input.
Documented IC50 of `CC(=O)N1CC[C@@H](n2ncc(Cl)c2C(=O)Nc2ncc(C#Cc3ccc(F)cc3)cc2C)[C@H](F)C1` : 4.3

----------
Molecular target: UniProt:P08684
Sequence (P08684 whole entry): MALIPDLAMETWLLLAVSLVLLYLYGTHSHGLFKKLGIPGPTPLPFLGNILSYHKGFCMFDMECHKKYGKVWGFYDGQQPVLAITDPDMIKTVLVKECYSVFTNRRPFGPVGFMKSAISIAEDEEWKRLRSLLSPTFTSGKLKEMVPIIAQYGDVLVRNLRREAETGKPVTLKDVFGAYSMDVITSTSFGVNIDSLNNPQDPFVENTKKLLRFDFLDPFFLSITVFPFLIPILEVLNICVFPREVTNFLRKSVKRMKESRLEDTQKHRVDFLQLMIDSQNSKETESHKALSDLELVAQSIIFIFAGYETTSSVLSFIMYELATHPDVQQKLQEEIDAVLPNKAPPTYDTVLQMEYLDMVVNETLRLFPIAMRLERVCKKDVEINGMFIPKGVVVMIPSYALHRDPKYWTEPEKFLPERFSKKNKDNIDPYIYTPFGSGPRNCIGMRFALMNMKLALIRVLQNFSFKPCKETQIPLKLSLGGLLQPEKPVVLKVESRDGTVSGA
Documented pIC50 across a set of compounds
Please treat pIC50 as minus the base-10 logarithm of the molar concentration.

Sample `CC(=O)N1CCC(n2ncc(Cl)c2C(=O)Nc2ncc(C#Cc3ccccc3)cc2C)CC1` ; pIC50 observed: 4.97

Lab note: `CC(=O)N1CC[C@@H](n2ncc(Cl)c2C(=O)Nc2ncc(C#Cc3ccc(F)cc3)cc2C)[C@H](F)C1` gave pIC50 of 4.98

----------
Target: sodium channel site 2
Experiment: Radioligand binding, sodium channel site 2
Conditions: follow-up binding
measurement type: IC50 (µM)
Provide the reading as a plain figure in µM.

Value of IC50 reported for the compound `CC(=O)N1CC[C@@H](n2ncc(Cl)c2C(=O)Nc2ncc(C#Cc3ccc(F)cc3)cc2C)[C@H](F)C1` is 9.13

----------
Test: Rat brain to plasma ratio (Kp, Kp,uu)
Format: in vivo
Conditions: male, Sprague Dawley, brain and plasma (unbound), intravenous, 0.2 mg/kg; rat unbound brain:unbound plasma
measurement type: Kp uu at 15 min
# answer = number (no unit)

INSERT INTO results (query_smiles, recorded_value) VALUES
  ('CC(=O)N1CCC(n2ncc(Cl)c2C(=O)Nc2ncc(C#Cc3ccccc3)cc2C)CC1', 1);

Just so you know, measured Kp uu at 15 min for `CC(=O)N1CC[C@@H](n2ncc(Cl)c2C(=O)Nc2ncc(C#Cc3ccc(F)cc3)cc2C)[C@H](F)C1` came out at 0.1

----------
Assay: Liver microsome intrinsic clearance, rat
Format: in vitro ADME
Conditions: pH 7.4; rat liver microsomes, predicted intrinsic clearance; read-out: LMS CLINT rat
// reported CLint scaled at 1 µM per item
Unit mL/min/kg implied. Number only.

Look over these answered cases.
INSERT INTO results (compound, measurement_type, recorded_value) VALUES
  ('CC(=O)N1CC[C@@H](n2ncc(Cl)c2C(=O)Nc2ncc(C#Cc3ccc(F)cc3)cc2C)[C@H](F)C1 [Compound 11]', 'CLint scaled at 1 µM', 40),
  ('Cc1cc(C#Cc2ccccc2)cnc1NC(=O)c1c(Cl)cnn1CCCC#N [Compound 15d]', 'CLint scaled at 1 µM', 30),
  ('CC(=O)N1CC(F)(Cn2ncc(Cl)c2C(=O)Nc2ncc(C#Cc3ccccc3)cc2C)C1 [Compound 15e]', 'CLint scaled at 1 µM', 72),
  ('CC(=O)N1CCC(n2ncc(Cl)c2C(=O)Nc2ncc(C#Cc3ccccc3)cc2C)CC1 [Compound 10]', 'CLint scaled at 1 µM', 62),
  ('CC(=O)N1CC[C@@H](n2ncc(Cl)c2C(=O)Nc2ncc(C#Cc3ccccc3)cc2C)[C@H](F)C1 [Compound 16b]', 'CLint scaled at 1 µM', 94);

Record Cc1cc(C#Cc2ccccc2)cnc1NC(=O)c1c(Cl)cnn1[C@H]1CCOC1 [Compound 15a] , field CLint scaled at 1 µM: 49

----------
Assay: Liver microsome intrinsic clearance, human
Format: in vitro ADME
Conditions: pH 7.4; human liver microsomes, predicted intrinsic clearance; read-out: LMS CLINT human
measurement type: CLint scaled at 1 µM (mL/min/kg)
Give the number; mL/min/kg is assumed, so skip it.

INSERT INTO assay_data (molecule, recorded_value) VALUES
  ('Cc1cc(C#Cc2ccccc2)cnc1NC(=O)c1cc(OC[C@@H]2COCCO2)ccc1Cl [Compound 7]', 57),
  ('CC(=O)N1CC(F)(Cn2ncc(Cl)c2C(=O)Nc2ncc(C#Cc3ccccc3)cc2C)C1 [Compound 15e]', 16),
  ('Cc1cc(C#Cc2ccccc2)cnc1NC(=O)c1cc(-c2noc(C3CCOC3)n2)ccc1Cl (stereo not shown) [Compound 13b]', 71),
  ('CC(=O)N1CC[C@@H](n2ncc(Cl)c2C(=O)Nc2ncc(C#Cc3ccc(F)cc3)cc2C)[C@H](F)C1 [Compound 11]', 10),
  ('CC(=O)N1CCC(n2ncc(Cl)c2C(=O)Nc2ncc(C#Cc3ccccc3)cc2C)CC1 [Compound 10]', 6),
  ('Cc1cc(C#Cc2ccccc2)cnc1NC(=O)c1c(Cl)cnn1[C@H]1CCOC1 [Compound 15a]', 4);

Entry Cc1cc(C#Cc2ccccc2)cnc1NC(=O)c1cc(C(=O)N2CC(F)(F)C2)ccc1Cl [Compound 13a] ; CLint scaled at 1 µM = 18

Reported CLint scaled at 1 µM for CC(=O)N1CC[C@@H](n2ncc(Cl)c2C(=O)Nc2ncc(C#Cc3ccccc3)cc2C)[C@H](F)C1 [Compound 16b] was 13

The molecule Cc1cc(C#Cc2ccccc2)cnc1NC(=O)c1cc(OCC2COCCO2)ccc1Cl (stereo not shown) [Compound 13c] showed CLint scaled at 1 µM equal to 36

// recorded CLint scaled at 1 µM for Cc1cc(C#Cc2ccccc2)cnc1NC(=O)c1c(Cl)cnn1CCCC#N [Compound 15d] : 9
